Source of measurements: paper PMC5421785

study.system: HLA-DRB1*04:01 (Homo sapiens, UniProt P01903+P01911, A100K/A169T/F76Y/I96L/K127E/L162R/M171V/N62H/P40V/Q125Y/R42H/S133A/S149N/S66Y/V115G/V209L/W38E)
Construct: EBV transformed homozygous cell lines were used as sources of MHC molecules; endogenous in cells; host or cells: EBV transformed homozygous cell lines
assay.notes: HLA class II peptide binding, inhibition of radiolabeled peptide binding to purified MHC
condition.details: read-out: DRB1*04:01 binding capacity, WT peptide (IC50 nM)
Ends that are not written are not given here.

| sequence.content | censoring.operator | IC50 [nM] |
| --- | --- | --- |
| FSLADAINTEFKNTR [Vimentin 86 WT] | = | 12000 |
| TVETRDGQVINETSQ [Vimentin 446 WT] | = | 9590 |
| YATRSSAVRLRSSVP [Vimentin 61 WT] | = | 1600 |
| DVRQQYESVAAKNLQ [Vimentin 271 WT] | = | 6370 |
| AANRNNDALRQAKQE [Vimentin 301 WT] | > | 40000 |
| DIMRLREKLQEEMLQ [Vimentin 181 WT] | > | 40000 |
| NDRFANYIDKVRFLE [Vimentin 111 WT] | = | 16400 |
| EEEMRELRRQVDQLT [Vimentin 151 WT] | = | 4350 |
| LLAELEQLKGQGKSR [Vimentin 131 WT] | > | 40000 |
| SAVRLRSSVPGVRLL [Vimentin 66 WT] | = | 5060 |
| RTYSLGSALRPSTSR [Vimentin 36 WT] | = | 769 |
| SPGGVYATRSSAVRL [Vimentin 56 WT] | = | 1150 |
| NYIDKVRFLEQQNKI [Vimentin 116 WT] | = | 824 |
| YRRMFGGPGTASRPS [Vimentin 11 WT] | = | 9750 |
| ELRRQVDQLTNDKAR [Vimentin 156 WT] | = | 5240 |
| VDQLTNDKARVEVER [Vimentin 161 WT] | = | 31600 |
| SKPDLTAALRDVRQQ [Vimentin 261 WT] | > | 40000 |
| MSTRSVSSSSYRRMF [Vimentin 1 WT] | = | 491 |
| ASRPSSSRSYVTTST [Vimentin 21 WT] | = | 1030 |
| ERKVESLQEEIAFLK [Vimentin 221 WT] | > | 40000 |
| TAALRDVRQQYESVA [Vimentin 266 WT] | = | 6320 |
| EEMLQREEAENTLQS [Vimentin 191 WT] | = | 11900 |
| AINTEFKNTRTNEKV [Vimentin 91 WT] | = | 1340 |
| VSSSSYRRMFGGPGT [Vimentin 6 WT] | = | 725 |
| REEAENTLQSFRQDV [Vimentin 196 WT] | = | 6010 |
| VTTSTRTYSLGSALR [Vimentin 31 WT] | = | 1220 |
| ADLSEAANRNNDALR [Vimentin 296 WT] | = | 13900 |

---

study.system: HLA-DRB1*01:01 (Homo sapiens, UniProt P01903+P01911, A100R/D57E/F55L/F60I/F76Y/I96L/L162R/M171V/P40L/Q125E/R42F/V115G/Y59C)
Construct: EBV transformed homozygous cell lines were used as sources of MHC molecules; endogenous in cells; host or cells: EBV transformed homozygous cell lines
assay.notes: HLA class II peptide binding, inhibition of radiolabeled peptide binding to purified MHC
condition.details: citrullinated 15-mer peptide (X = citrulline); purified HLA-DRB1*01:01; read-out: DRB1*01:01 binding capacity, Cit peptide (IC50 nM)
Square brackets hold non-standard residues; d marks the D form. Peptide text beside a SMILES is read from it. Cit = NC(=O)NCCC[C@H](N)C(=O)O

| compound | IC50 |
| --- | --- |
| CC(C)[C@H](NC(=O)CNC(=O)[C@H](C)NC(=O)[C@H](C)NC(=O)CNC(=O)[C@H](CC(=O)O)NC(=O)[C@H](CCCNC(N)=O)NC(=O)CNC(=O)[C@@H]1CCCN1C(=O)[C@@H]1CCCN1C(=O)CNC(=O)[C@H](CC(=O)O)NC(=O)[C@H](C)NC(=O)CN)C(=O)N[C@@H](CCCCN)C(=O)O [GADGPPGXDGAAGVK] (H-GADGPPG[Cit]DGAAGVK-OH; N-terminus and C-terminus assumed) | > 40000 nM |
| CC(C)C[C@H](NC(=O)[C@H](C)NC(=O)[C@H](CC(=O)O)NC(=O)[C@@H](N)CC(N)=O)C(=O)N[C@@H](CCCNC(N)=O)C(=O)N[C@@H](CCC(N)=O)C(=O)N[C@@H](C)C(=O)N[C@@H](CCCCN)C(=O)N[C@@H](CCC(N)=O)C(=O)N[C@@H](CCC(=O)O)C(=O)N[C@@H](CO)C(=O)N[C@H](C(=O)N[C@@H](CCC(=O)O)C(=O)N[C@@H](Cc1ccc(O)cc1)C(=O)N[C@@H](CCCNC(=N)N)C(=O)O)[C@@H](C)O [NDALXQAKQESTEYR] (H-NDAL[Cit]QAKQESTEYR-OH) | 22600 nM |
| CC(C)C[C@H](NC(=O)[C@H](CC(N)=O)NC(=O)[C@@H](NC(=O)[C@H](CCC(=O)O)NC(=O)[C@H](CCCNC(N)=O)NC(=O)[C@H](CC(C)C)NC(=O)[C@H](CC(N)=O)NC(=O)[C@@H](N)CC(C)C)[C@@H](C)O)C(=O)N[C@@H](CC(=O)O)C(=O)N[C@@H](CO)C(=O)N[C@@H](CC(C)C)C(=O)N1CCC[C@H]1C(=O)N[C@@H](CC(C)C)C(=O)N[C@H](C(=O)N[C@@H](CC(=O)O)C(=O)O)C(C)C [LNLXETNLDSLPLVD] | 69 nM |
| CC(C)C[C@H](NC(=O)[C@H](C)NC(=O)[C@H](CC(=O)O)NC(=O)[C@@H](NC(=O)[C@H](CCC(=O)O)NC(=O)[C@H](CS)NC(=O)[C@@H](NC(=O)[C@H](CC(C)C)NC(=O)[C@H](CO)NC(=O)[C@H](CCC(N)=O)NC(=O)[C@@H](NC(=O)[C@H](CCC(N)=O)NC(=O)[C@@H](N)CCCNC(N)=O)C(C)C)[C@@H](C)O)C(C)C)C(=O)N[C@@H](CCCCN)C(=O)NCC(=O)O [XQVQSLTCEVDALKG] (H-[Cit]QVQSLTCEVDALKG-OH) | 5110 nM |
| CC(C)C[C@H](NC(=O)[C@H](CC(C)C)NC(=O)[C@@H](NC(=O)[C@H](CC(C)C)NC(=O)[C@H](CC(C)C)NC(=O)[C@@H](N)C(C)C)[C@@H](C)O)C(=O)N[C@H](C(=O)N[C@@H](C)C(=O)N[C@@H](C)C(=O)N[C@H](C(=O)N[C@@H](CC(C)C)C(=O)N[C@@H](CCCNC(N)=O)C(=O)N[C@@H](CS)C(=O)N[C@@H](CCC(N)=O)C(=O)NCC(=O)O)C(C)C)C(C)C [VLLTLLVAAVLXCQG] (H-VLLTLLVAAVL[Cit]CQG-OH) | 29 nM |
| CC(C)C[C@H](NC(=O)[C@H](CO)NC(=O)[C@H](CCC(N)=O)NC(=O)[C@@H](NC(=O)[C@H](CCC(N)=O)NC(=O)[C@H](CCCNC(N)=O)NC(=O)[C@H](CCCNC(=N)N)NC(=O)[C@H](Cc1ccc(O)cc1)NC(=O)[C@H](CCC(=O)O)NC(=O)[C@@H](NC(=O)[C@@H](N)CO)[C@@H](C)O)C(C)C)C(=O)N[C@H](C(=O)N[C@@H](CS)C(=O)N[C@@H](CCC(=O)O)C(=O)N[C@H](C(=O)O)C(C)C)[C@@H](C)O [STEYRXQVQSLTCEV] (H-STEYR[Cit]QVQSLTCEV-OH) | 158 nM |
| CC[C@H](C)[C@H](NC(=O)[C@H](CCC(=O)O)NC(=O)[C@H](CC(=O)O)NC(=O)[C@H](CCC(N)=O)NC(=O)[C@H](CC(C)C)NC(=O)[C@H](CCCNC(N)=O)NC(=O)CNC(=O)[C@@H](NC(=O)[C@@H](NC(=O)[C@H](CC(=O)O)NC(=O)[C@H](CCC(N)=O)NC(=O)[C@H](Cc1ccc(O)cc1)NC(=O)[C@H](CC(N)=O)NC(=O)[C@H](C)N)[C@@H](C)O)[C@@H](C)CC)C(=O)N[C@@H](CCC(N)=O)C(=O)O [ANYQDTIGXLQDEIQ] (H-ANYQDTIG[Cit]LQDEIQ-OH) | 1050 nM |
| CC(C)C[C@H](NC(=O)CNC(=O)[C@H](CCC(N)=O)NC(=O)[C@H](C)NC(=O)CN)C(=O)N[C@@H](CCC(N)=O)C(=O)NCC(=O)N1CCC[C@H]1C(=O)N[C@@H](CCCNC(N)=O)C(=O)NCC(=O)N[C@@H](CC(C)C)C(=O)N1CCC[C@H]1C(=O)NCC(=O)N[C@H](C(=O)N1CCC[C@H]1C(=O)O)[C@@H](C)O [GAQGLQGPXGLPGTP] (H-GAQGLQGP[Cit]GLPGTP-OH) | 578 nM |
| CC(C)[C@H](NC(=O)[C@H](CC(=O)O)NC(=O)[C@H](CCCCN)NC(=O)[C@H](CC(=O)O)NC(=O)[C@H](CC(N)=O)NC(=O)[C@H](Cc1ccc(O)cc1)NC(=O)[C@H](CCCNC(N)=O)NC(=O)[C@H](CCC(N)=O)NC(=O)CNC(=O)[C@H](CC(=O)O)NC(=O)[C@@H](N)CCC(N)=O)C(=O)N[C@@H](Cc1c[nH]c2ccccc12)C(=O)N[C@@H](CCCCN)C(=O)N1CCC[C@H]1C(=O)N[C@@H](CCC(=O)O)C(=O)O [QDGQXYNDKDVWKPE] (H-QDGQ[Cit]YNDKDVWKPE-OH; N-terminus and C-terminus assumed) | > 40000 nM |
